# TEST_SUMMARY: Half life in rat plasma at 5 uM by LC-MS/MS analysis
# Format: ADME, cell-free
I'd appreciate it if you could supply half-life at 5 µM values for the items below.
Numbers only, in h.

Your task in this section: give half-life at 5 µM for each listed record.
1. COc1ccccc1/C=N/NC(=O)COc1ccc(Cl)cc1C
2. Cc1cc(Cl)ccc1OCC(=O)N/N=C/c1ccccc1OC(F)(F)F

0.533
1.73
